Data origin, for the record: PubChem BioAssay (NCI)

system: HOP-92 NSCLC; assay: NCI tumour cell line growth inhibition, 48 h; in the data active = GI50 below about 0.43 µM; inactive = the rest
Classes used: Yes = active, No = inactive

>  <COMPOUND>
O=C1C=CC=C[C@@H]2C(C3OCCO3)CC[C@H]12.[C-]#[O+].[C-]#[O+].[C-]#[O+].[Fe] (stereo not given in full)

>  <ASSIGNED LABEL>
No

$$$$
>  <COMPOUND>
C=CCNCCN1C(=O)c2ccc3c4c(ccc(c24)C1=O)C(=O)N(CCNCC=C)C3=O

>  <ASSIGNED LABEL>
No

$$$$
>  <COMPOUND>
CCN(CC)c1ccc(/C=N/NC(=O)c2ccc(S(C)(=O)=O)cc2)c(O)c1

>  <ASSIGNED LABEL>
No

$$$$
>  <COMPOUND>
CC(=O)OCc1cnc2c3c(nc4ccccc4c13)C(=O)c1cccnc1-2

>  <ASSIGNED LABEL>
Yes

$$$$
>  <COMPOUND>
O=C1C(Br)=CC2C1C1C3CCC3C2(Br)C12OCCO2 (stereo not given)

>  <ASSIGNED LABEL>
No

$$$$

###

tested on: MDA-MB-231 breast; assay: NCI tumour cell line growth inhibition, 48 h
ATTRIBUTE MEASURED: TGI

>  <MOLECULE>
CC(OC(C)(C)C)[C@H](NC(=O)OCc1ccccc1)C(=O)NC(OCc1ccccc1)[C@H]1COC(C)(C)O1 (some centres undefined)

>  <ATTRIBUTE MEASURED>
TGI

>  <TEST RESULT>
> 10 µM

$$$$
>  <MOLECULE>
CC(C)(C)C(=O)C(C(=O)c1ccccc1)C(=O)C(C)(C)C

>  <ATTRIBUTE MEASURED>
TGI

>  <TEST RESULT>
> 100 µM

$$$$
>  <MOLECULE>
COC(=O)CN1Cc2cc(C)cc(c2O)CN(CC(=O)OC)Cc2cc(C)cc(c2O)CN(CC(=O)OC)Cc2cc(C)cc(c2O)C1

>  <ATTRIBUTE MEASURED>
TGI

>  <TEST RESULT>
> 77.2 µM

$$$$
>  <MOLECULE>
COC(=O)Cc1c(C(=O)CC(C)(C)n2cnc(CCN3C(=O)CCC3=O)c2)[nH]c2ccccc12

>  <ATTRIBUTE MEASURED>
TGI

>  <TEST RESULT>
> 100 µM

$$$$

###

system: T-47D breast; assay: NCI tumour cell line growth inhibition, 48 h; in the data active = GI50 below about 0.43 µM; inactive = the rest
Labels: active, inactive

>  <MOLECULE>
CCN(CC)c1ccc(/C=N/NC(=O)c2ccc(S(C)(=O)=O)cc2)c(O)c1

>  <ASSIGNED LABEL>
inactive

$$$$
>  <MOLECULE>
O=C(NCCCN1CCC(N2CCCCC2)CC1)C1=Cc2cc(Br)ccc2OC1

>  <ASSIGNED LABEL>
inactive

$$$$
>  <MOLECULE>
O=C(OCc1nc2nc(Cl)nc(N3CCOCC3)c2[nH]1)n1ccnc1

>  <ASSIGNED LABEL>
inactive

$$$$
>  <MOLECULE>
C[C@H]1CCC/C=C/[C@@H]2C[C@H](O)C[C@H]2[C@H](O)[C@@H](S(=O)C[C@@H](N)C(=O)O)CC(=O)O1 (some centres not stated)

>  <ASSIGNED LABEL>
active

$$$$
>  <MOLECULE>
COc1cccc2c1C(=O)c1c(O)c3c(c(O)c1C2=O)C[C@@](O)(C(C)=O)C[C@@H]3O[C@H]1C[C@H](N)[C@H](O)[C@H](C)O1

>  <ASSIGNED LABEL>
active

$$$$
>  <MOLECULE>
O=C1/C(=C\c2ccc(Cl)cc2)CCOc2c1ccc1ccccc21

>  <ASSIGNED LABEL>
inactive

$$$$
>  <MOLECULE>
O=C1C=CC=C[C@@H]2C(C3OCCO3)CC[C@H]12.[C-]#[O+].[C-]#[O+].[C-]#[O+].[Fe] (some centres not stated)

>  <ASSIGNED LABEL>
inactive

$$$$

###

tested on: EKVX NSCLC; assay: NCI tumour cell line growth inhibition, 48 h
ATTRIBUTE MEASURED: TGI

>  <COMPOUND>
O=C(NCc1ccccc1)c1cc2ccc(O)c(O)c2cn1

>  <TARGET SYSTEM>
EKVX NSCLC

>  <TEST RESULT>
> 100 µM

$$$$
>  <COMPOUND>
COc1ccc(C2(O)C(S(=O)(=O)c3ccc(C)cc3)=Cc3ccc(OC)cc32)cc1 (stereo not drawn)

>  <TARGET SYSTEM>
EKVX NSCLC

>  <TEST RESULT>
> 100 µM

$$$$
>  <COMPOUND>
Nc1cccc(CCN2CCN(CCCc3ccccc3)CC2)c1

>  <TARGET SYSTEM>
EKVX NSCLC

>  <TEST RESULT>
> 100 µM

$$$$

###

Listing of recorded TGI by entry.
test system: HCC-2998 colon; assay: NCI tumour cell line growth inhibition, 48 h
ATTRIBUTE MEASURED: TGI

>  <SUBSTANCE SMILES>
O=C(O)COc1ccc(C(=O)/C(SS/C(C(=O)c2ccc(OCC(=O)O)c(Cl)c2Cl)=C2\C=C(c3ccc(F)cc3)SS2)=C2/C=C(c3ccc(F)cc3)SS2)c(Cl)c1Cl

>  <ATTRIBUTE MEASURED>
TGI

>  <TEST RESULT>
> 100 µM

$$$$
>  <SUBSTANCE SMILES>
CNC(=O)Oc1ccc(C(=S)Nc2ccc(Br)cc2)cc1

>  <ATTRIBUTE MEASURED>
TGI

>  <TEST RESULT>
41.4 µM

$$$$
>  <SUBSTANCE SMILES>
Cc1ccc(S(=O)(=O)Nn2c(S)c(C#N)c(-c3ccc(N(C)C)cc3)c(C#N)c2=O)cc1

>  <ATTRIBUTE MEASURED>
TGI

>  <TEST RESULT>
> 100 µM

$$$$
>  <SUBSTANCE SMILES>
N#Cc1c2c(c(Nc3ccc(F)cc3)n3c1nc1ccccc13)CCCC2

>  <ATTRIBUTE MEASURED>
TGI

>  <TEST RESULT>
> 100 µM

$$$$
>  <SUBSTANCE SMILES>
CC(=O)OCc1cnc2c3c(nc4ccccc4c13)C(=O)c1cccnc1-2

>  <ATTRIBUTE MEASURED>
TGI

>  <TEST RESULT>
0.535 µM

$$$$

###

tested on: SF-268 CNS; assay: NCI tumour cell line growth inhibition, 48 h
Below: a set of entries, each annotated with reported TGI.
ATTRIBUTE MEASURED: TGI (µM)

>  <SUBSTANCE SMILES>
O=c1oc2ccc(Br)cc2c(=O)n1-c1ccc(Br)cc1F

>  <OPERATOR SYMBOL>
=

>  <TEST RESULT>
7.1

$$$$
>  <SUBSTANCE SMILES>
CC(C)(C)C1=NC(=P(c2ccccc2)(c2ccccc2)c2ccccc2)C(=O)O1

>  <OPERATOR SYMBOL>
>

>  <TEST RESULT>
100

$$$$
>  <SUBSTANCE SMILES>
OC/C=C/[C@H](OCc1ccccc1)[C@H](/C=C/CO)OCc1ccccc1

>  <OPERATOR SYMBOL>
=

>  <TEST RESULT>
94.6

$$$$

###

test system: OVCAR-3 ovarian; assay: NCI tumour cell line growth inhibition, 48 h
ATTRIBUTE MEASURED: TGI

>  <MOLECULE>
CCN(CC)c1ccc(/C=N/NC(=O)c2ccc(S(C)(=O)=O)cc2)c(O)c1

>  <TEST RESULT>
> 100 µM

$$$$
>  <MOLECULE>
NCCNS(=O)(=O)c1ccc(N)cc1

>  <TEST RESULT>
> 100 µM

$$$$
>  <MOLECULE>
CC1=CC(O)(c2ccccc2)C(N2CCOCC2)N1O (stereo unspecified)

>  <TEST RESULT>
> 100 µM

$$$$
>  <MOLECULE>
COC(=O)c1cc2/c(=N/O)c3ccccc3sc2o1

>  <TEST RESULT>
> 100 µM

$$$$
>  <MOLECULE>
[C-]#[O+].[C-]#[O+].[C-]#[O+].[C-]#[O+].[O-]C(c1ccccc1[PH+]1OC(C(F)(F)F)(C(F)(F)F)c2ccccc21)(C(F)(F)F)C(F)(F)F.[Re] (stereo unspecified)

>  <TEST RESULT>
7.58 µM

$$$$
>  <MOLECULE>
COc1ccc(C2SC(N)=Nc3c2c(C)nn3C(=O)c2ccccc2O)cc1 (stereo unspecified)

>  <TEST RESULT>
7.48 µM

$$$$

###

test system: HOP-92 NSCLC; test: NCI tumour cell line growth inhibition, 48 h
ATTRIBUTE MEASURED: TGI (µM)

>  <COMPOUND>
O=C1/C(=C\c2ccc(Cl)cc2)CCOc2c1ccc1ccccc21

>  <ATTRIBUTE MEASURED>
TGI

>  <VALUE UNITS>
µM

>  <OPERATOR SYMBOL>
=

>  <TEST RESULT>
63.4

$$$$
>  <COMPOUND>
C1OC1C1CO1 (stereo not drawn)

>  <ATTRIBUTE MEASURED>
TGI

>  <VALUE UNITS>
µM

>  <OPERATOR SYMBOL>
>

>  <TEST RESULT>
100

$$$$
>  <COMPOUND>
Nc1cccc(CCN2CCN(CCCc3ccccc3)CC2)c1

>  <ATTRIBUTE MEASURED>
TGI

>  <VALUE UNITS>
µM

>  <OPERATOR SYMBOL>
=

>  <TEST RESULT>
53.8

$$$$
